Condition Summary: buffer; pH 7.4; 200.0 µM
Quantity: solubility kinetic

[[record]]
molecule = "CCN1C(=O)c2ccc(C(=O)NCc3ccco3)cc2C1=O"
quantity = "solubility kinetic"
result = "> 44.7 µg/mL"

[[record]]
molecule = "COc1ccccc1N1C(=S)NC2CS(=O)(=O)CC21 (stereo not drawn)"
quantity = "solubility kinetic"
result = "> 44.8 µg/mL"

[[record]]
molecule = "Cl.OC(CNCc1ccncc1)c1ccccc1 (stereo not drawn)"
quantity = "solubility kinetic"
result = "> 39.7 µg/mL"

[[record]]
molecule = "O=S1(=O)CC(O)C(NCCO)C1 (stereo not drawn)"
quantity = "solubility kinetic"
result = "> 29.3 µg/mL"

[[record]]
molecule = "COc1ccccc1CNC(=O)CSc1n[nH]c(N)n1"
quantity = "solubility kinetic"
result = "> 44 µg/mL"

[[record]]
molecule = "CC(C)CC1(C)NC(=O)N(CC(=O)Nc2ccc3c(c2)OCCO3)C1=O (stereo not drawn)"
quantity = "solubility kinetic"
result = "> 54.2 µg/mL"

[[record]]
molecule = "Cl.NOCC(=O)O"
quantity = "solubility kinetic"
result = "> 16.4 µg/mL"

[[record]]
molecule = "CCn1c(SCC(=O)NC2CC2)nnc1-c1ccccn1"
quantity = "solubility kinetic"
result = "> 45.5 µg/mL"

[[record]]
molecule = "Cl.O=C(Nc1cccc(F)c1)[C@@H]1CCCN1"
quantity = "solubility kinetic"
result = "> 36.7 µg/mL"

[[record]]
molecule = "CCOc1cc(/C=C2\\NC(=O)NC2=O)ccc1OC(C)C(=O)O (stereo not drawn)"
quantity = "solubility kinetic"
result = "> 48 µg/mL"

[[record]]
molecule = "COCCCN1CN=C(NS(=O)(=O)c2ccc(C)cc2)NC1"
quantity = "solubility kinetic"
result = "> 49 µg/mL"

[[record]]
molecule = "COc1cccc(-c2csc(NC(=O)Nc3ccccc3)n2)c1"
quantity = "solubility kinetic"
result = "< 0.2 µg/mL"

[[record]]
molecule = "Cc1cc(C(=O)NC2CCC(O)CC2)c(C)o1 (stereo not drawn)"
quantity = "solubility kinetic"
result = "> 35.6 µg/mL"

[[record]]
molecule = "Cn1cccc1C(=O)c1cccc([N+](=O)[O-])c1"
quantity = "solubility kinetic"
result = "14.3 µg/mL"

[[record]]
molecule = "CCOC(=O)c1c(C)[nH]c(C(=O)COC(=O)CCNS(=O)(=O)c2ccc(NC(C)=O)cc2)c1C"
quantity = "solubility kinetic"
result = "19.2 µg/mL"

[[record]]
molecule = "COc1cccc(-c2cc(C(=O)NCC3CCCO3)c3cc(Br)cc(C)c3n2)c1 (stereo not drawn)"
quantity = "solubility kinetic"
result = "< 0.5 µg/mL"

[[record]]
molecule = "COCCCNc1nc(N)c([N+](=O)[O-])c(NCc2ccccc2)n1"
quantity = "solubility kinetic"
result = "7.4 µg/mL"

[[record]]
molecule = "CC1(C)Oc2ccc3ccc(=O)oc3c2C(/C=N/O)=C1Cl"
quantity = "solubility kinetic"
result = "12.5 µg/mL"

[[record]]
molecule = "COc1cc(/C=C(\\NC(C)=O)C(=O)O)cc(OC)c1OC"
quantity = "solubility kinetic"
result = "> 44.3 µg/mL"

[[record]]
molecule = "Cc1ccc(CNC(=O)C2CSC3(C)CCC(=O)N23)cc1 (stereo not drawn)"
quantity = "solubility kinetic"
result = "> 45.7 µg/mL"

[[record]]
molecule = "COc1cc(C(=O)OCC(=O)NC2CC2)ccc1OCCC(C)C"
quantity = "solubility kinetic"
result = "6.8 µg/mL"

[[record]]
molecule = "N#CC1(NC(=O)CSc2nc3ccccc3s2)CCCCC1"
quantity = "solubility kinetic"
result = "46.4 µg/mL"

[[record]]
molecule = "COC(=O)[C@H](Cc1ccccc1)NC(=O)NCCc1ccc(F)cc1"
quantity = "solubility kinetic"
result = "> 51.7 µg/mL"

